Target: recombinant human TNFα (human, UniProt P01375 77-233)
Sequence (P01375 77-233 limits assumed): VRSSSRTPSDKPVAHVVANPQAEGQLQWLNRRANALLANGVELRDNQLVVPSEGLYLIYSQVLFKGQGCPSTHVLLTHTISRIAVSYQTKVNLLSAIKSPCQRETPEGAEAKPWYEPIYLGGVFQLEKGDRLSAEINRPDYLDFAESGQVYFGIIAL
Assay: cell-based or functional assay
Measured Relative potency: EC50X/EC50TB-A, L929 cells of individual entries
measurement.name: Relative potency: EC50X/EC50TB-A, L929 cells (ratio EC50X/EC50TB-A)

binder	unit.spec	measured
TB-A H_M48L/F68I (scFv) scFv: DIVMTQSPSSLSASVGDRVTLTCTASQSVSNDVVWYQQRPGKAPKLLIYSAFNRYTGVPSRFSGRGYGTDFTLTISSLQPEDVAVYYCQQDYNSPRTFGQGTKLEVKRGGGGSGGGGSGGGGSGGGGSQVQLVQSGAEVKKPGASVKVSCTASGYTFTHYGMNWVRQAPGKGLEWLGWINTYTGEPTYADKFKDRITFSLETSASTVYMELTSLTSDDTAVYYCARERGDAMDYWGQGTLVTVSS	ratio EC50X/EC50TB-A	1.1
TB-A H_F68A (scFv) scFv: DIVMTQSPSSLSASVGDRVTLTCTASQSVSNDVVWYQQRPGKAPKLLIYSAFNRYTGVPSRFSGRGYGTDFTLTISSLQPEDVAVYYCQQDYNSPRTFGQGTKLEVKRGGGGSGGGGSGGGGSGGGGSQVQLVQSGAEVKKPGASVKVSCTASGYTFTHYGMNWVRQAPGKGLEWMGWINTYTGEPTYADKFKDRATFSLETSASTVYMELTSLTSDDTAVYYCARERGDAMDYWGQGTLVTVSS	ratio EC50X/EC50TB-A	1.14
TB-A H_F70L (scFv) scFv: DIVMTQSPSSLSASVGDRVTLTCTASQSVSNDVVWYQQRPGKAPKLLIYSAFNRYTGVPSRFSGRGYGTDFTLTISSLQPEDVAVYYCQQDYNSPRTFGQGTKLEVKRGGGGSGGGGSGGGGSGGGGSQVQLVQSGAEVKKPGASVKVSCTASGYTFTHYGMNWVRQAPGKGLEWMGWINTYTGEPTYADKFKDRFTLSLETSASTVYMELTSLTSDDTAVYYCARERGDAMDYWGQGTLVTVSS	ratio EC50X/EC50TB-A	2.7

Values were extracted from patent US20160185850A1.
